- Test system: basal gastric acid secretion
- experiment.description: Inhibitory effect on the basal gastric acid secretion in pylorus-ligated rats (Shay's rat model)
- Format: in vivo, Sprague Dawley (SD) rats
- experimental.conditions: 5 h, male SD rats, 3 mg/kg/2 ml into the duodenum, five hours after the ligation, total gastric acid secretion vs control group
Structures can show the parent of a compound that is named as a salt.
Kindly return label 1 if reported inhibition in vivo at 3 mg/kg is no lower than 40%; return label 0 if it is lower.

CNCc1cn(S(=O)(=O)c2cccnc2)c2cc(Nc3ccc(OC(F)(F)F)cc3OC)ccc12 [Example 56, hydrochloride] | label 1

API: above_or_equal(metric=inhibition in vivo at 3 mg/kg, cutoff=40%) for item CNCc1cn(S(=O)(=O)c2cccnc2)c2cc(Cc3ccc(F)cc3Cl)ccc12 [Example 273, hydrochloride]
label 0

Another molecule: CNCc1cn(S(=O)(=O)c2cncc(F)c2)c2cc(Nc3ccc(OC)cc3OC(F)(F)F)ccc12 [Example 214, hydrochloride]
label 1

Another molecule: CNCc1cn(S(=O)(=O)c2cccnc2)c2cc(Nc3ccc(C(F)(F)F)nc3Cl)ccc12 [Example 125, hydrochloride]
label 1

Another molecule: CNCc1cn(S(=O)(=O)c2cccnc2)c2cc(Cc3ccc(C)c(F)c3F)ccc12 [Example 286, hydrochloride]
label 0

Another molecule: CNCc1cn(S(=O)(=O)c2cccc(F)c2)c2cc(Nc3ccc(OC(F)(F)F)cc3OC)ncc12 [Example 356, hydrochloride]
label 1

---

Items are presented alongside their recorded pIC50.
- study.system: proton pump (H+/K+-ATPase) (Sus scrofa, UniProt P19156)
- Construct: Gastric vesicles were prepared from hog stomach via centrifugal separation
- Sequence (P19156 whole entry): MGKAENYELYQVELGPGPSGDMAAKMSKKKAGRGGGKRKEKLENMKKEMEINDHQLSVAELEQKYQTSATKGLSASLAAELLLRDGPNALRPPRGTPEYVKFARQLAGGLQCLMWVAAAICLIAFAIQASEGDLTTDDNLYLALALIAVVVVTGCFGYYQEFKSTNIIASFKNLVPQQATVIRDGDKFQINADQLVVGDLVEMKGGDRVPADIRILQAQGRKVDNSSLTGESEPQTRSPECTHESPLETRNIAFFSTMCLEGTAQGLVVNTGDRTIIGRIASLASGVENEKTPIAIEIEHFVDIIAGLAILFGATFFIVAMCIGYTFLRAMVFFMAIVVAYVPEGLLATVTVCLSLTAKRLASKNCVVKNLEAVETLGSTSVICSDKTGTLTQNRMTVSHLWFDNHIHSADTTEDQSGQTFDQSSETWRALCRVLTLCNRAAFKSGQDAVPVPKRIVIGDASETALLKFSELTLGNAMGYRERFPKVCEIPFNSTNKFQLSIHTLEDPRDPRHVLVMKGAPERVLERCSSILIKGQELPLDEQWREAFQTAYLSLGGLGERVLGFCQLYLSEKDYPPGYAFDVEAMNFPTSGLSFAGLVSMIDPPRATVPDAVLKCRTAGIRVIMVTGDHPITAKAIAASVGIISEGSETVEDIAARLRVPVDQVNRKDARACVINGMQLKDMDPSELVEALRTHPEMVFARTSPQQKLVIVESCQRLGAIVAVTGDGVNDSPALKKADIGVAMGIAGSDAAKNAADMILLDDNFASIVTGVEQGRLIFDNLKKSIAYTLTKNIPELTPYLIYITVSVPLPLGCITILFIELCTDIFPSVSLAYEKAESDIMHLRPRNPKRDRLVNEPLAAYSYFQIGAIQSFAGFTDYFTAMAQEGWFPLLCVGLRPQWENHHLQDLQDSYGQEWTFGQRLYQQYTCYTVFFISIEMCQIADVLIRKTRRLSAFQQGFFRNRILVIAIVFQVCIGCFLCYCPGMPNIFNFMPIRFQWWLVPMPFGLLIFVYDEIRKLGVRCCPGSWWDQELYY
- Sequence (P18434 whole entry partner): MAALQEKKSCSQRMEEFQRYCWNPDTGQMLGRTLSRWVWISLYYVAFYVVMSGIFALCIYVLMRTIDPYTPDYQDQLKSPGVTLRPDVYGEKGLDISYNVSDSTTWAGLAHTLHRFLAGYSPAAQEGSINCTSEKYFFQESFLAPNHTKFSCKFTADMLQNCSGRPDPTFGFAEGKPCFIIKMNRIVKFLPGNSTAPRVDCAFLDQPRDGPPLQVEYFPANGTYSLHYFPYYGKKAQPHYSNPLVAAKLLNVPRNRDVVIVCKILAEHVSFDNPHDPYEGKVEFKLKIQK
- experiment.description: Measurement of inhibitory effects on proton pump (H+/K+-ATPase) activities
- experimental.conditions: hog gastric vesicles, K+-specific H+/K+-ATPase activity, Tris-HCl buffer pH 7.4, 37° C. for 40 minutes, malachite green Pi readout
Structures can show the parent of a compound that is named as a salt.
The meaning of pIC50 here: minus log10 of the concentration in molar units.

Tell me reported pIC50 for CNCc1cn(S(=O)(=O)c2cccnc2)c2cc(Nc3ccc(C#N)cc3Cl)ccc12 [Example 39, hydrochloride] , tested with proton pump (H+/K+-ATPase) (Sus scrofa, UniProt P19156).
6.89

Another molecule: CNCc1cn(S(=O)(=O)c2cccc(OC(F)F)c2)c2cc(Nc3ccc(OC)nc3Cl)ccc12 [Example 182, hydrochloride]
6.41

Another molecule: CNCc1cn(S(=O)(=O)c2cccnc2)c2cc(Nc3ccc(C#N)cc3C)ccc12 [Example 36, hydrochloride]
6.47

Another molecule: CNCc1cn(S(=O)(=O)c2cccnc2)c2cc(Nc3ccc(C)nc3Cl)ccc12 [Example 113, hydrochloride]
6.47

---

- study.system: proton pump (H+/K+-ATPase) (Sus scrofa, UniProt P19156)
- Construct: Gastric vesicles were prepared from hog stomach via centrifugal separation
- experiment.description: Measurement of inhibitory effects on proton pump (H+/K+-ATPase) activities
- experimental.conditions: hog gastric vesicles, K+-specific H+/K+-ATPase activity, Tris-HCl buffer pH 7.4, 37° C. for 40 minutes, malachite green Pi readout
Counter-ions that a name gives are not always drawn.
quantity: IC50 (nM)
Form entry: value (nM) — number only.

Field: example entries. Status: answers known.
CNCc1cn(S(=O)(=O)c2cccc(C(F)(F)F)c2)c2cc(Nc3ccc(C)cc3Cl)ccc12 [Example 184, hydrochloride] | 360
CNCc1cn(S(=O)(=O)c2cccnc2)c2cc(Cc3ccc(F)cc3Cl)ccc12 [Example 273, hydrochloride] | 370
CNCc1cn(S(=O)(=O)c2cccnc2)c2cc(Nc3cccc(C)c3F)ccc12 [Example 20, hydrochloride] | 380
CNCc1cn(S(=O)(=O)c2ccccc2)c2cc(Nc3ccc(C)cc3F)ccc12 [Example 222, hydrochloride] | 1840
CNCc1cn(S(=O)(=O)c2cccc(Cl)c2)c2cc(Nc3cccnc3OC)ccc12 [Example 157, hydrochloride] | 380
CNCc1cn(S(=O)(=O)c2cccnc2)c2cc(Oc3ncc(F)cn3)ccc12 [Example 313, hydrochloride] | 25000
CNCc1cn(S(=O)(=O)c2cccc(C(F)(F)F)c2)c2cc(Nc3ccc(Cl)cc3F)ccc12 [Example 185, hydrochloride] | 1000
CNCc1cn(S(=O)(=O)c2cccnc2)c2cc(Cc3ccc(C)cc3Cl)ccc12 [Example 267, hydrochloride] | 230

Quick one: IC50 of CNCc1cn(S(=O)(=O)c2cccnc2)c2cc(Nc3ccc(Cl)cc3Cl)cnc12 [Example 349, hydrochloride] ?
280

Another compound: CNCc1cn(S(=O)(=O)c2cccc(OC(F)(F)F)c2)c2cc(Nc3ccc(C)cc3Cl)ccc12 [Example 196, hydrochloride]
390

Another compound: CNCc1cn(S(=O)(=O)c2cccc(F)c2)c2cc(Nc3ccc(OC(F)(F)F)cc3OC)ncc12 [Example 356, hydrochloride]
2000

Another compound: CNCc1cn(S(=O)(=O)c2cccnc2)c2cc(Nc3ccc(C)cc3)ccc12 [Example 10, hydrochloride]
200

Another compound: CNCc1cn(S(=O)(=O)c2cccnc2)c2cc(Cc3ccc(OC(F)(F)F)cc3C)ccc12 [Example 278, hydrochloride]
1970

Another compound: CNCc1cn(S(=O)(=O)c2cccnc2)c2cc(Nc3c(Cl)cc(Cl)cc3Cl)ccc12 [Example 87, hydrochloride]
400

---

- study.system: proton pump (H+/K+-ATPase) (Sus scrofa)
- Construct: Gastric vesicles were prepared from hog stomach via centrifugal separation
- experiment.description: Measurement of inhibitory effects on proton pump (H+/K+-ATPase) activities
- experimental.conditions: hog gastric vesicles, K+-specific H+/K+-ATPase activity, Tris-HCl buffer pH 7.4, 37° C. for 40 minutes, malachite green Pi readout
Where a name gives a salt, the structure may show the parent alone.
quantity: log10(IC50) (log10 of the value in nM)
Answers are given as log10 of IC50 in nM.

CNCc1cn(S(=O)(=O)c2cccnc2)c2cc(-c3cnn(C)c3)ccc12 | 4.70

Quick one: log10(IC50) of CNCc1cn(S(=O)(=O)c2cccnc2)c2cc(Nc3c(F)cccc3F)ccc12 [Example 60, hydrochloride] ?
3.39

Another compound: CNCc1cn(S(=O)(=O)c2cccnc2)c2cc(Nc3ccc(F)cc3F)ccc12 [Example 24, hydrochloride]
2.75

---

- study.system: proton pump (H+/K+-ATPase) (Sus scrofa, UniProt P19156)
- Construct: Gastric vesicles were prepared from hog stomach via centrifugal separation
- experiment.description: Measurement of inhibitory effects on proton pump (H+/K+-ATPase) activities
- experimental.conditions: hog gastric vesicles, K+-specific H+/K+-ATPase activity, Tris-HCl buffer pH 7.4, 37° C. for 40 minutes, malachite green Pi readout
Structures can show the parent of a compound that is named as a salt.
Items are presented alongside their recorded IC50.

Field: example entries. Status: answers known.
CNCc1cn(S(=O)(=O)c2cccc(OC(F)F)c2)c2cc(Cc3ccc(C)cc3Cl)ccc12 | 0.6 µM
CNCc1cn(S(=O)(=O)c2cccnc2)c2cc(Nc3ccc(F)cc3C(F)(F)F)ccc12 [Example 26, hydrochloride] | 0.18 µM
CNCc1cn(S(=O)(=O)c2cccnc2)c2cc(Nc3ccccc3F)ccc12 [Example 3, hydrochloride] | 0.25 µM

Continue with the next molecule.
Quick one: IC50 of CNCc1cn(S(=O)(=O)c2cncc(Br)c2)c2cc(Nc3ccc(C)cc3F)ccc12 [Example 241, hydrochloride] ?
2.19 µM

---

- study.system: proton pump (H+/K+-ATPase) (Sus scrofa, UniProt P19156)
- Construct: Gastric vesicles were prepared from hog stomach via centrifugal separation
- experiment.description: Measurement of inhibitory effects on proton pump (H+/K+-ATPase) activities
- experimental.conditions: hog gastric vesicles, K+-specific H+/K+-ATPase activity, Tris-HCl buffer pH 7.4, 37° C. for 40 minutes, malachite green Pi readout
Structures can show the parent of a compound that is named as a salt.
quantity: pIC50
The meaning of pIC50 here: minus log10 of the concentration in molar units.

Field: example entries. Status: answers known.
CNCc1cn(S(=O)(=O)c2cccnc2)c2cc(Nc3ccc(C)cc3Cl)ccc12 | 6.68
CNCc1cn(S(=O)(=O)c2cccc(OC)c2)c2cc(Cc3ccc(C)c(F)c3F)ccc12 | 6.11
CNCc1cn(S(=O)(=O)c2ccc(OC(F)(F)F)cc2)c2cc(Nc3ccc(OC(F)(F)F)cc3C)ccc12 [Example 209, hydrochloride] | 5.97
CNCc1cn(S(=O)(=O)c2cccnc2)c2cc(Nc3ccc(C#N)cc3C(F)(F)F)ccc12 [Example 40, hydrochloride] | 5.74
CNCc1cn(S(=O)(=O)c2cncc(F)c2)c2cc(Nc3ccc(OC(F)(F)F)cc3OC)ccc12 [Example 216, hydrochloride] | 5.82

Quick one: pIC50 of CNCc1cn(S(=O)(=O)c2cccnc2)c2cc(Nc3ccc(F)c(F)c3F)ccc12 [Example 67, hydrochloride] ?
6.42

Another compound: CNCc1cn(S(=O)(=O)c2cccc(C(F)(F)F)c2)c2cc(Nc3ccc(C)c(F)c3F)ccc12 [Example 191, hydrochloride]
7.15

Another compound: CNCc1cn(S(=O)(=O)c2cccnc2)c2cc(Nc3ncccc3C)ccc12 [Example 98, hydrochloride]
5.72

Another compound: CNCc1cn(S(=O)(=O)c2cccnc2)c2cc(Nc3ccc(Cl)nc3C)ccc12 [Example 118, hydrochloride]
6.32

Another compound: CNCc1cn(S(=O)(=O)c2cccnc2)c2cc(Nc3ccc(Br)cc3Cl)ccc12 [Example 44, hydrochloride]
6.57

Hey, just so you know, these numbers are from patent US9676714B2.
